Tested on: Escherichia coli (E. coli—ATCC #10536)
Assay: Automated assessment of efficacy in surfactant base (2.85% sodium cocoyl glycinate and 1.85% sodium lauroamphoacetate, pH 10.0), 15 seconds exposure
Format: cell-based
Settings: […] w/v, alone, model surfactant solution
Rule for this label: Condition met means Δ OD 450 nm = OD450 (time = 16 hours) − OD450 (time zero), Mean is less than -0.5; Condition not met means Δ OD 450 nm = OD450 (time = 16 hours) − OD450 (time zero), Mean is at least -0.5.

COMPOUND	TESTED_SYSTEM	ANSWER_LABEL
Oc1ccc(C2CCCC2)cc1	Escherichia coli (E. coli—ATCC #10536)	Condition not met
Oc1ccc(Cc2ccccc2)cc1 [4-hydroxydiphenylmethane]	Escherichia coli (E. coli—ATCC #10536)	Condition met
CC1CCC(CO)C(C)C1 (centres unmarked) [dihydrofloralol, 2,4-Dimethylcyclohexylmethanol]	Escherichia coli (E. coli—ATCC #10536)	Condition not met
Oc1ccccc1C1CCCC1	Escherichia coli (E. coli—ATCC #10536)	Condition met
Oc1cccc2c1CCCC2 [5,6,7,8-tetrahydronaphthalen-1-ol]	Escherichia coli (E. coli—ATCC #10536)	Condition met
Cc1cc(O)cc(C)c1Cl	Escherichia coli (E. coli—ATCC #10536)	Condition not met
Oc1ccc2c(c1)CCCC2 [5,6,7,8-tetrahydronaphthalen-2-ol]	Escherichia coli (E. coli—ATCC #10536)	Condition met
CC1=CC[C@@H](CO)[C@H](C)C1 (relative stereo)	Escherichia coli (E. coli—ATCC #10536)	Condition not met
CC(C)(C)c1ccc(O)c(O)c1	Escherichia coli (E. coli—ATCC #10536)	Condition met

Data origin, for the record: patent US9320271B2
